The reported numbers originate from ChEMBL document CHEMBL3988442.

Kindly state Percent Effect for each of the entries shown.
Molecular target: Ubiquitin-activating enzyme e1, putative (Leishmania donovani (strain BPK282A1))
Assay: Leishmania donovani Ubiquitin Activating Enzyme (LdE1)
Type: functional
Design: scale not given: direction of the effect not stated beside the values
Details: 30 µM
Results with a measured potency or affinity are listed apart.
Answers are plain numbers, in %.

Below are worked cases with known answers.
- Compound: "Cc1nc(C)n(CC2CCCN(Cc3nc(C)c(C)o3)C2)n1 (stereo unspecified)"
  Target Desc: "Ubiquitin-activating enzyme e1, putative (Leishmania donovani (strain BPK282A1))"
  Obs Value: 21.6
- Compound: "Cc1cnn(CC2CCCCN2C(=O)Cc2csc(C)n2)c1 (stereo unspecified)"
  Target Desc: "Ubiquitin-activating enzyme e1, putative (Leishmania donovani (strain BPK282A1))"
  Obs Value: -3.8
- Compound: "O=C(CCC1CCCC1)N1CCC(c2ncc3c(n2)CCNC3)CC1"
  Target Desc: "Ubiquitin-activating enzyme e1, putative (Leishmania donovani (strain BPK282A1))"
  Obs Value: 14.9
- Compound: "O=C1N(Cc2cccc(F)c2F)CCCC1(O)CNC1CCCC1 (stereo unspecified)"
  Target Desc: "Ubiquitin-activating enzyme e1, putative (Leishmania donovani (strain BPK282A1))"
  Obs Value: 16
- Compound: "CN(Cc1cccnc1)C1CC2(CCN(c3ccccn3)CC2)C1"
  Target Desc: "Ubiquitin-activating enzyme e1, putative (Leishmania donovani (strain BPK282A1))"
  Obs Value: 13.3
- Compound: "O=C(c1cccc(S(=O)(=O)NCCCc2ccco2)c1)N1CCOCC1"
  Target Desc: "Ubiquitin-activating enzyme e1, putative (Leishmania donovani (strain BPK282A1))"
  Obs Value: 2.74
- Compound: "O=C1NCCCCC1Sc1nnc(-c2cccnc2)n1C1CC1 (stereo unspecified)"
  Target Desc: "Ubiquitin-activating enzyme e1, putative (Leishmania donovani (strain BPK282A1))"
  Obs Value: 2.74
- Compound: "CN1CC(=O)N(c2cccc(F)c2)CC12CCN(S(C)(=O)=O)C2 (stereo unspecified)"
  Target Desc: "Ubiquitin-activating enzyme e1, putative (Leishmania donovani (strain BPK282A1))"
  Obs Value: 10.8
- Compound: "Cc1noc(C(C)C)c1C(=O)NCC(c1cccc(F)c1)N(C)C (stereo unspecified)"
  Target Desc: "Ubiquitin-activating enzyme e1, putative (Leishmania donovani (strain BPK282A1))"
  Obs Value: -2.53
- Compound: "Cc1cccc(C(=O)N2C[C@@H]3OCCN(c4ncccn4)[C@@H]3C2)n1"
  Target Desc: "Ubiquitin-activating enzyme e1, putative (Leishmania donovani (strain BPK282A1))"
  Obs Value: 5.33

Now let's try a different one.
Q: Complete the entry with Percent Effect for Cc1cc(CN2CCN(C(=O)NCc3nc(C)cs3)CC2)on1
Result: 23.7
